- tgt: human TLR8 (Homo sapiens, UniProt Q9NR97)
- Construct: host or cells: HEK-Blue cells
- Sequence (Q9NR97 27-1041): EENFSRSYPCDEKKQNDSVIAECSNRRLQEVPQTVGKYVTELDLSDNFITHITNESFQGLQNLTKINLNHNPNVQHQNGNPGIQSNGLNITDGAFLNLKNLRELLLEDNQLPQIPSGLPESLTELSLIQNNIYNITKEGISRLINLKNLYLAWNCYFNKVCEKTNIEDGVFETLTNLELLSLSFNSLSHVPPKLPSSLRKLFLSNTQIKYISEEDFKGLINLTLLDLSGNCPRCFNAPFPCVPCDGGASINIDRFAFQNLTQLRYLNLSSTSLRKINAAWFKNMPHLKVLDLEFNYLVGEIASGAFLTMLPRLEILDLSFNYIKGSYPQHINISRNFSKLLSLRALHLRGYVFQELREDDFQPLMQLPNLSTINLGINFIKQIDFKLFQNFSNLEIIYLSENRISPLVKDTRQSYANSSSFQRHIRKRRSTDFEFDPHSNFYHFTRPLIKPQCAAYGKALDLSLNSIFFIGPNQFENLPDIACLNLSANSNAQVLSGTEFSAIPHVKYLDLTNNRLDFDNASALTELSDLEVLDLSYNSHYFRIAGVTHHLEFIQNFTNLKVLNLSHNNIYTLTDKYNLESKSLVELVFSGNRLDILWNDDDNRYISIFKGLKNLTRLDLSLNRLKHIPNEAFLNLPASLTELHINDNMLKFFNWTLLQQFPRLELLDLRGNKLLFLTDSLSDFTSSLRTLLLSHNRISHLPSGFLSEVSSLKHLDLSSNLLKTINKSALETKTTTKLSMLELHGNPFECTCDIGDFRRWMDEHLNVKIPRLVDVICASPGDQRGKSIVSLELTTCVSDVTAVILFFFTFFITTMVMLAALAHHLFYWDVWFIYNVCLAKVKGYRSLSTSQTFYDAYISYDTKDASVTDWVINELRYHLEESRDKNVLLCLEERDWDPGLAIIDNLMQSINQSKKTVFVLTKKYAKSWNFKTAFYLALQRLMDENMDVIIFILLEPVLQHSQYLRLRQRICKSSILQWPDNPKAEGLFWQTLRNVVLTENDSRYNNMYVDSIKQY
- protocol details: TLR8 inhibition reporter assay (HEK-Blue SEAP)
- Assay type: cell-based
- setup conditions: HEK-Blue cells overexpressing human TLR8, R848 15.9 μM, 22 hour incubation
Overview of recorded IC50 for various compounds

{"columns": ["compound", "tgt", "inequality sign", "IC50 (nM)"],
 "data": [
  ["COc1cc(-c2cc3[nH]c(=O)n([C@H]4CC[C@@H](NCC5CCOCC5)CC4)c3cc2C(C)C)cn2ncnc12 [Example 196]", "human TLR8 (Homo sapiens, UniProt Q9NR97)", "=", 0.05],
  ["COc1cc(-c2cc3[nH]c(=O)n(C4CCC(N5CCC6(CC5)COC6)CC4)c3cc2C(C)C)cn2ncnc12 (stereo not shown) [Example 240]", "human TLR8 (Homo sapiens, UniProt Q9NR97)", "=", 0.13],
  ["COc1cc(-c2cc3[nH]c(=O)n([C@H]4CCCN(CCC(C)C)C4)c3cc2C(C)C)cn2ncnc12 [Example 132]", "human TLR8 (Homo sapiens, UniProt Q9NR97)", "=", 10.1],
  ["COC1CN(C2CCC(n3c(=O)[nH]c4cc(-c5cn6ncnc6c(C)c5C)c(C(C)C)cc43)CC2)C1 (single isomer, unassigned) [Example 278]", "human TLR8 (Homo sapiens, UniProt Q9NR97)", "=", 1.57],
  ["COc1cc(-c2cc3[nH]c(=O)n([C@H]4CCCN(C(C)C)C4)c3cc2C(C)C)cn2ncnc12 [Example 120]", "human TLR8 (Homo sapiens, UniProt Q9NR97)", "=", 0.8],
  ["COc1cc(-c2cc3[nH]c(=O)n([C@@H]4CCCN(CC5CCOCC5)C4)c3cc2C)cn2ncnc12 [Example 57]", "human TLR8 (Homo sapiens, UniProt Q9NR97)", "=", 8.87],
  ["COc1cc(-c2cc3[nH]c(=O)n(C4CCC(N5CC(O)(C(F)(F)F)C5)CC4)c3cc2C(C)C)cn2ncnc12 (single isomer, unassigned) [Example 242]", "human TLR8 (Homo sapiens, UniProt Q9NR97)", "=", 1.12],
  ["Cc1cc2c(cc1-c1cc(C)c3ncnn3c1)[nH]c(=O)n2C1CCN(CC(=O)N(C)C)CC1 [Example 91]", "human TLR8 (Homo sapiens, UniProt Q9NR97)", ">", 3130],
  ["CCc1cc2c(cc1-c1cc(OC)c3ncnn3c1)[nH]c(=O)n2[C@@H]1CCCN(CCC(F)(F)F)C1 [Example 183]", "human TLR8 (Homo sapiens, UniProt Q9NR97)", "=", 6.44],
  ["Cc1c(-c2cc3[nH]c(=O)n([C@@H]4CCCNC4)c3cc2C(C)C)cn2ncnc2c1C [119 FC]", "human TLR8 (Homo sapiens, UniProt Q9NR97)", "=", 7.17],
  ["COc1cc(-c2cc3[nH]c(=O)n([C@H]4CC[C@@H](N)CC4)c3cc2C)cn2ncnc12 [1 EG]", "human TLR8 (Homo sapiens, UniProt Q9NR97)", "=", 32.6],
  ["COc1cc(-c2cc3[nH]c(=O)n(C4CCC(N5CCSCC5)CC4)c3cc2C(C)C)cn2ncnc12 (stereo not shown) [Example 251]", "human TLR8 (Homo sapiens, UniProt Q9NR97)", "=", 0.95],
  ["COc1cc(-c2cc3[nH]c(=O)n([C@H]4CC[C@@H](N(C)C5CCOCC5)CC4)c3cc2C)cn2ncnc12 [Example 85]", "human TLR8 (Homo sapiens, UniProt Q9NR97)", "=", 7.14],
  ["Cc1cc2c(cc1-c1cc(C)c3ncnn3c1)[nH]c(=O)n2C1CCN(C(C)C)CC1 [Example 2]", "human TLR8 (Homo sapiens, UniProt Q9NR97)", "=", 107],
  ["CCN1CCC[C@@H](n2c(=O)[nH]c3cc(-c4cc(OC)c5ncnn5c4)c(C(C)C)cc32)C1 (single isomer, unassigned) [Example 144]", "human TLR8 (Homo sapiens, UniProt Q9NR97)", "=", 5.02],
  ["CCCN1CCC[C@@H](n2c(=O)[nH]c3cc(-c4cc(C)c5ncnn5c4)c(C)cc32)C1 [Example 42]", "human TLR8 (Homo sapiens, UniProt Q9NR97)", "=", 29.5],
  ["Cc1cc2c(cc1-c1cc(C)c3ncnn3c1)[nH]c(=O)n2[C@@H]1CCCN(CC2CCOCC2)C1 [Example 41]", "human TLR8 (Homo sapiens, UniProt Q9NR97)", "=", 27.1],
  ["COc1cc(-c2cc3[nH]c(=O)n([C@@H]4CCCN(C5CCCOC5)C4)c3cc2C(C)C)cn2ncnc12 (single isomer, unassigned) [Example 218]", "human TLR8 (Homo sapiens, UniProt Q9NR97)", "=", 5.19],
  ["COc1c(C)c(-c2cc3[nH]c(=O)n(C4CCC(NCC5(S(C)(=O)=O)CC5)CC4)c3cc2C(C)C)cn2ncnc12 (single isomer, unassigned) [Example 260]", "human TLR8 (Homo sapiens, UniProt Q9NR97)", "=", 0.38],
  ["COc1cc(-c2cc3[nH]c(=O)n([C@@H]4CCCN(C5CCOCC5)C4)c3cc2C)cn2ncnc12 [Example 70]", "human TLR8 (Homo sapiens, UniProt Q9NR97)", "=", 117],
  ["Cc1cc2c(cc1-c1cc(C)c3ncnn3c1)[nH]c(=O)n2[C@@H]1CCCN(C)C1 [Example 15]", "human TLR8 (Homo sapiens, UniProt Q9NR97)", "=", 22.9],
  ["Cc1cc2c(cc1-c1cc(C)c3ncnn3c1)[nH]c(=O)n2C1CCNCC1 [1 EA]", "human TLR8 (Homo sapiens, UniProt Q9NR97)", "=", 439],
  ["COC[C@@H]1CCN(C2CCC(n3c(=O)[nH]c4cc(-c5cc(OC)c6ncnn6c5)c(C(C)C)cc43)CC2)C1 (single isomer, unassigned) [Example 291]", "human TLR8 (Homo sapiens, UniProt Q9NR97)", "=", 1.86],
  ["Cc1cc2c(cc1-c1cc(C)c3ncnn3c1)[nH]c(=O)n2C1CCN(C(=O)CN(C)C)CC1 [Example 101]", "human TLR8 (Homo sapiens, UniProt Q9NR97)", "=", 50.3],
  ["Cc1cc2c(cc1-c1cc(C)c3ncnn3c1)[nH]c(=O)n2[C@@H]1CCCN(CC2CCCC2)C1 [Example 47]", "human TLR8 (Homo sapiens, UniProt Q9NR97)", "=", 32.8],
  ["CCN(CC)[C@H]1CC[C@@H](n2c(=O)[nH]c3cc(-c4cc(C)c5ncnn5c4)c(C)cc32)CC1 [Example 20]", "human TLR8 (Homo sapiens, UniProt Q9NR97)", "=", 14.4],
  ["COCCN1CCC[C@H](n2c(=O)[nH]c3cc(-c4cc(OC)c5ncnn5c4)c(C(C)C)cc32)C1 [Example 221]", "human TLR8 (Homo sapiens, UniProt Q9NR97)", "=", 5.67],
  ["CCCN1CCC[C@@H](n2c(=O)[nH]c3cc(-c4cc(OC)c5ncnn5c4)c(CC)cc32)C1 [Example 179]", "human TLR8 (Homo sapiens, UniProt Q9NR97)", "=", 2.48]
]}
